tested on: UO-31 renal; assay: NCI-60 one-dose screen, 48 h (100 = growth as untreated, 0 = no growth, -100 = all killed); settings: 10 µM unless noted
The panel holds about 83,000 compounds, 20% with a hit somewhere; the sample as a whole holds those more often.
quantity: growth (%)
Report only the number, with the unit % understood.

CCc1ccc(OCc2ccccc2C(=O)Nc2ccc3nc(C)cc(N)c3c2)cc1
-98.5
CCOC(=O)C1CCN(S(=O)(=O)/N=C2/NC(=O)NC2=C(Cl)Cl)CC1
8.22
C=C1C(=O)O[C@H]2[C@H]1CC/C(COC(=O)NCC(=O)Nc1ccc(OC)c(C(N)=O)c1O)=C\CC[C@@]1(C)O[C@@H]21
82.7
COc1cccc(NC(=O)Nc2ccc(Oc3ncnc4[nH]c(C)c(C)c34)cc2)c1
86.1
CCCCCCN1C(=O)CN=C1Nc1ccc2cc3ccc(NC4=NCC(=O)N4CCCCCC)cc3nc2c1
51.7
CCCCCCC/C=C/[C@H]1O[C@]23C(=O)C[C@@]4(C[C@@H](OC5OC(CO)C(O)C(O)C5O)C[C@@H]4[C@H]2C=C1C)OC3=O (stereo not given in full)
3.36
COc1ccc(OCC(=O)OC(C)C)cc1
89.6
C=C(C)[C@@H]1CC[C@]2(C(=O)N3CCN(C)CC3)CC[C@]3(C)[C@H](CC[C@@H]4[C@@]5(C)C/C(=C/c6ccco6)C(=O)C(C)(C)[C@@H]5CC[C@]43C)[C@@H]12
60.5
O=C1[C@@H](OS(=O)(=O)CC(F)(F)F)[C@H](c2ccc(F)cn2)N1c1cc2c3ccccc3ccc2c2ccccc12
62.1
N#Cc1ccc(Oc2ccc3ccc(=O)oc3c2)cc1
99.1

Enquiry: Which growth is listed for "Fc1ccc(N/N=C/c2ccc(-n3cccn3)cc2)cc1" ?
Return: 80.4

Enquiry: Which growth is listed for "CN(C)[C@@H]1C(=O)C(C(N)=O)=C(O)[C@@]2(O)C(=O)C3=C(O)c4c(O)cc(CN5CCc6ccccc6C5)c(Cl)c4C[C@H]3C[C@@H]12" ?
Return: -95.5

Enquiry: Which growth is listed for "COc1ccc(NC(=O)c2sc3nc(C)c(C(C)=O)cc3c2N)cc1" ?
Return: 105

Enquiry: Which growth is listed for "COc1ccc(C(=O)c2cc(OC)c(C)c(OC)c2)cc1OC(=O)CCl" ?
Return: 49.9

Enquiry: Which growth is listed for "COc1ccc2[nH]c(=O)c(/C=C/C(=O)c3ccccc3OC)cc2c1" ?
Return: 23.6

Enquiry: Which growth is listed for "O=C(O)c1cn(C2CC2)c2cc(N3CCN(C(=O)CSc4nnc(-c5ccc(Cl)cc5)n4-c4ccccc4)CC3)c(F)cc2c1=O" ?
Return: 84.7

Enquiry: Which growth is listed for "CNc1cccc2c1C(=O)c1cccc(N)c1C2=O" ?
Return: 62.1

Enquiry: Which growth is listed for "C=C1C(=O)O[C@H]2[C@H]1CC/C(COC(=O)/C=C/c1cccnc1)=C\CC[C@@]1(C)O[C@@H]21" ?
Return: 24.9

Enquiry: Which growth is listed for "CCN1CCC[C@H]1c1cc(O)c2c(c1OC)C[C@H]1C[C@H]3[C@H](N)C(=O)C(C(N)=O)=C(O)[C@@]3(O)C(=O)C1=C2O" ?
Return: -5.6

Enquiry: Which growth is listed for "Nc1c(C(=O)c2ccccc2)sc2nc(-c3cc4ccccc4o3)cc(-c3ccc(Cl)cc3)c12" ?
Return: 79.1

Enquiry: Which growth is listed for "COc1cc2nc3c(=O)n(-c4ccc(C#N)cc4)cnn3c(=O)c2cc1OC" ?
Return: 83.6

Enquiry: Which growth is listed for "Nc1c(C(=O)Nc2ccccc2)sc2nc3c(cc12)CN(C(=O)OCc1ccccc1)CC3" ?
Return: 67.5

Enquiry: Which growth is listed for "O=C(C[n+]1cccc2cc(Cl)ccc21)c1ccc2c(c1)CCCC2" ?
Return: 91.4

Enquiry: Which growth is listed for "O=C(Nc1cccc(-c2cccc(F)c2)c1)C1CCN(Cc2cccc3cccnc23)CC1" ?
Return: 35.8

Enquiry: Which growth is listed for "CCC[S@](=O)c1ccc2nc(NC(=O)OC)[nH]c2c1" ?
Return: 96.8

Enquiry: Which growth is listed for "CC[C@H](Nc1ncnc2nc[nH]c12)c1nc2cccc(CC(=O)c3ccc(C(=O)NO)cc3)c2c(=O)n1-c1ccccc1" ?
Return: 87.4
